experimental_target: recombinant human S1P1 receptor (Homo sapiens, UniProt P21453)
Sequence (P21453 whole entry): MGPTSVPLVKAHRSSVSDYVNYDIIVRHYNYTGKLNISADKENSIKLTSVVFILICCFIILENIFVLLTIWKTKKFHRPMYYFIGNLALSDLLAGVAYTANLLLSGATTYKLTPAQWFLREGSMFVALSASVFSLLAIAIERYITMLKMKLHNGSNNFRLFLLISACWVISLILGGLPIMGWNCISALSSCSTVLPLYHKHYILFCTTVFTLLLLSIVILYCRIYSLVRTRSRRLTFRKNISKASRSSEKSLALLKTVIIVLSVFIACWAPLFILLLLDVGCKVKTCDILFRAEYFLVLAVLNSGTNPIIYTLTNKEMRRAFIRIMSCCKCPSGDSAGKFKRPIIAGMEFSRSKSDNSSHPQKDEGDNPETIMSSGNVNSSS
assay_overview: GTPγS assay to determine EC50 values
Type: biochemical
measurement_context: 35S-GTPγS binding, CHO membranes, human S1P1
Method: GTPγS binding assays are performed in 96 well microtiter plates (Nunc, 442587) in a final volume of 200 μl, using membrane preparations of CHO cells expressing recombinant human S1P1 receptor. […] Membrane-bound ^35S-GTPγS is measured with a TopCount from Packard Biosciences. […]
quantity_measured: EC50

Query :: // returns reported EC50 for input CNCc1cccc(-c2nc(-c3cc(C)c(OCC(O)CNC(=O)CO)c(C)c3)no2)c1 (racemic)
Result :: > 10 µM

###

experimental_target: recombinant human S1P1 receptor (Homo sapiens, UniProt P21453)
assay_overview: GTPγS assay to determine EC50 values
Type: biochemical
measurement_context: 35S-GTPγS binding, membrane preparations of CHO cells expressing recombinant human S1P1 receptor
// returns 0 (no) unless EC50 is strictly below 5 nM, in which case 1 (yes)

Query :: Does the reported EC50 of the following molecule sit strictly below 5 nM? CCCCN(CC)Cc1cc(C)cc(-c2nc(-c3cc(C)c(OC[C@@H](O)CNC(=O)CO)c(CC)c3)no2)c1
Result :: 0 (no)

Query :: Subsequent entry: CCc1cc(-c2noc(-c3cc(C)cc(CN(C)CC(C)C)c3)n2)cc(C)c1OC[C@@H](O)CNC(=O)CO
Result :: 1 (yes)

Query :: Subsequent entry: CCN(C)Cc1cc(C)cc(-c2nc(-c3cc(C)c(OC[C@@H](O)CO)c(Cl)c3)no2)c1
Result :: 1 (yes)

Query :: Subsequent entry: CCCc1cc(CNCC(C)C)cc(-c2nc(-c3cc(C)c(OC[C@@H](O)CNC(=O)CO)c(CC)c3)no2)c1
Result :: 0 (no)

Query :: Subsequent entry: CCN(C)Cc1cc(C)cc(-c2nc(-c3cc(C)c(OC[C@@H](O)CNC(=O)CO)c(Cl)c3)no2)c1
Result :: 1 (yes)

Query :: Subsequent entry: CCCCN(C)Cc1ccc(-c2nc(-c3cc(C)c(OC[C@@H](O)CNC(=O)CO)c(CC)c3)no2)cc1C
Result :: 0 (no)

Query :: Subsequent entry: CCc1cc(CN(C)CC)cc(-c2nc(-c3cc(C)c(OC[C@@H](O)CNC(=O)CO)c(CC)c3)no2)c1
Result :: 0 (no)

Query :: Subsequent entry: CCc1ccc(-c2nc(-c3cc(C)c(OC[C@@H](O)CNC(=O)CO)c(CC)c3)no2)cc1CN(C)C
Result :: 0 (no)

Query :: Subsequent entry: CCc1cc(-c2nc(-c3cc(C)c(OC[C@@H](O)CNC(=O)CO)c(CC)c3)no2)ccc1CN1CCCC1
Result :: 0 (no)

Query :: Subsequent entry: CCCN(C)Cc1cc(-c2nc(-c3cc(C)c(OC[C@@H](O)CNC(=O)CO)c(CC)c3)no2)cc(C(C)C)c1
Result :: 1 (yes)

Query :: Subsequent entry: CCCc1cc(CN(C)CCC)cc(-c2nc(-c3cc(C)c(OC[C@@H](O)CNC(=O)CO)c(CC)c3)no2)c1
Result :: 1 (yes)

Query :: Subsequent entry: CCCCN(C)Cc1cc(CC)cc(-c2nc(-c3cc(C)c(OC[C@@H](O)CNC(=O)CO)c(CC)c3)no2)c1
Result :: 1 (yes)

Where do these numbers come from? They come from patent US8410151B2.
